The entries below are paired with their reported pIC50.
# System: LNCaP
# Experiment description: Cytotoxicity against human LNCAP cells after 7 days by MTT assay
# Type: functional, cell-based
# Test conditions: 168 h
// pIC50 here means minus log10 of the molar concentration (mol/L)

Request: Name the reported pIC50 value associated with the molecule "CC[C@H]1CN2CCc3cc(OC)c(OC)cc3[C@@H]2C[C@@H]1C[C@@H]1c2cc(OC)c(OC)cc2CCN1C(=S)SCc1ccccc1"
Response: 5.88

Request: // query pIC50 value for entry "CC[C@H]1CN2CCc3cc(OC)c(OC)cc3[C@@H]2C[C@@H]1C[C@@H]1c2cc(OC)c(OC)cc2CCN1C(=S)SCCCCC(=O)OC"
Response: 5.75

Request: For "CC[C@H]1CN2CCc3cc(OC)c(OC)cc3[C@@H]2C[C@@H]1C[C@@H]1c2cc(OC)c(OC)cc2CCN1C(=S)SCC(=O)c1ccc(Cl)cc1" , what is its reported pIC50?
Response: 5.71

Request: Value lookup for pIC50; key = "CCOC(=O)c1ccc(NC(=O)CSC(=S)N2CCc3cc(OC)c(OC)cc3[C@H]2C[C@H]2C[C@H]3c4cc(OC)c(OC)cc4CCN3C[C@@H]2CC)cc1"
Response: 5.78

Request: Entry "CC[C@H]1CN2CCc3cc(OC)c(OC)cc3[C@@H]2C[C@@H]1C[C@@H]1c2cc(OC)c(OC)cc2CCN1C(=S)SCCN1C(=O)c2ccccc2C1=O" : reported pIC50 = ?
Response: 5.64

Request: Need pIC50, item "CC[C@H]1CN2CCc3cc(OC)c(OC)cc3[C@@H]2C[C@@H]1C[C@H]1NCCc2cc(OC)c(OC)cc21"
Response: 7.43
